- Tested on: Colo205 tumor cells
- assay: Method B: CellTiter-Glo Growth Inhibition Assay, Colo205
- Format: cell-based
- conditionLabel: Homo sapiens, COLO 205, 72 h, 3 days
pIC50: −log10 of the molar value.
Reported pIC50 values for the following molecules.

Answered cases to consult:
smilesStr: CCNc1nc(-c2cccc(NC(=O)C3CC3)c2)c(-c2ccnc(Nc3ccc(OCCN4CCCC4)c(Cl)c3)n2)s1
pIC50: 6.00 to 7.00

smilesStr: Cc1nc(-c2cccc(NC(=O)c3cc(F)ccc3F)c2)c(-c2ccnc(Nc3ccc(OCCN(C)C)c(Cl)c3)n2)o1
pIC50: < 6.00

Now look at this entry.
Lab note: Cc1nc(-c2cccc(NC(=O)Cc3cccs3)c2)c(-c2ccnc(Nc3cccc(F)c3)n2)s1 gave pIC50 of < 6.00
